# target.of.assay: Apoptotic protease-activating factor 1/Caspase-3/Caspase-9/Cytochrome c (Homo sapiens, UniProt O14727+P42574+P55211+P99999)
# Sequence (O14727 whole entry): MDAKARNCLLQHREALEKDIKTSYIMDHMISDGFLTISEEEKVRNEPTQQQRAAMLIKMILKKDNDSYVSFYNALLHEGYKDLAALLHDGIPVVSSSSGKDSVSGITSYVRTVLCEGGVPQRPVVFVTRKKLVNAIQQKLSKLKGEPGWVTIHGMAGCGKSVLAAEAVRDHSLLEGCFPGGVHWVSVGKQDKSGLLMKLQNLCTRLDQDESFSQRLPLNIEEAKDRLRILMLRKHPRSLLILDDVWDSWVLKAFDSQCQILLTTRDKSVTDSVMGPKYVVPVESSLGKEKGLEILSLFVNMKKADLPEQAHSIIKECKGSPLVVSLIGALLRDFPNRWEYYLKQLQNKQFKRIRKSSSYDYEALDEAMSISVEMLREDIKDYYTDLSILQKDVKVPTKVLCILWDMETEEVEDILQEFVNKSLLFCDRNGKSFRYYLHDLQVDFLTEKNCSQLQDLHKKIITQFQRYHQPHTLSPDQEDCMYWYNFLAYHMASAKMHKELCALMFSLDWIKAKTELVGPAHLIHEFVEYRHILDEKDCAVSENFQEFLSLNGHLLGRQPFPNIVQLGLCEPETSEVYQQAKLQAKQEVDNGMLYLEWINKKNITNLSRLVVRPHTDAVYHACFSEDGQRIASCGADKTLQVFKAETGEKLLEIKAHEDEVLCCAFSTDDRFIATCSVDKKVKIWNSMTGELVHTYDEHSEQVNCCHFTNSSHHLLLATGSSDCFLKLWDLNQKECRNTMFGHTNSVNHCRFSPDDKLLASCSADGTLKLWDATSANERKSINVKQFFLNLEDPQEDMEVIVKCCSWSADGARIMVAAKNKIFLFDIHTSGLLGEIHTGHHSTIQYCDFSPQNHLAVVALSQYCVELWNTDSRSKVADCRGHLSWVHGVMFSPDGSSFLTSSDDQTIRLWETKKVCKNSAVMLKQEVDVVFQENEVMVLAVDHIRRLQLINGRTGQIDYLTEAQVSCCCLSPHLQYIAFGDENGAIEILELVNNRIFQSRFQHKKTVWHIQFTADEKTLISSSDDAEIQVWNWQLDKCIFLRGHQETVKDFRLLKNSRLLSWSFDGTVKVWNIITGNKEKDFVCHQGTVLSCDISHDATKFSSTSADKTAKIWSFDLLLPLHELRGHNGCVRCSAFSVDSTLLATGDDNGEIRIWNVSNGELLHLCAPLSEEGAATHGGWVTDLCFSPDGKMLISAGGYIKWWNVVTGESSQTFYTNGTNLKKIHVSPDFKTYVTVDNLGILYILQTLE
# Sequence (P42574 29-175 limits assumed): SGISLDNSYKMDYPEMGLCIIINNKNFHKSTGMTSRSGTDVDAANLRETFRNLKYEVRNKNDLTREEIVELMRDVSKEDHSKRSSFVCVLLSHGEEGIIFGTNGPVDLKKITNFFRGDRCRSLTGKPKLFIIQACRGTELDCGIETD
# Sequence (P42574 176-277 limits assumed): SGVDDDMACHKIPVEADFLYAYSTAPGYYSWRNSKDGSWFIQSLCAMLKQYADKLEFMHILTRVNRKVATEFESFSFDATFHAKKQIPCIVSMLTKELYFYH
# Sequence (P55211 1-315 limits assumed): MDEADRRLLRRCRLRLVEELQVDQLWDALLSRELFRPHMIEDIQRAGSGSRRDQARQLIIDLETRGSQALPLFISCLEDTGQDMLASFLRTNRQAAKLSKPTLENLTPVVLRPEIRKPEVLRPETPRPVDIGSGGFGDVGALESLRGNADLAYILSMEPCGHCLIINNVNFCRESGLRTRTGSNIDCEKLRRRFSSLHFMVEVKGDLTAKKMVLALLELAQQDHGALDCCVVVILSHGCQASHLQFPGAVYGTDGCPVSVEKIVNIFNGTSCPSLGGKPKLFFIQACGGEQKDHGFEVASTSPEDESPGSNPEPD
# Sequence (P55211 331-416 limits assumed): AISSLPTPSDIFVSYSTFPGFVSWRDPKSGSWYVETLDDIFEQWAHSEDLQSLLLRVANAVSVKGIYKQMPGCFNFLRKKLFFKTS
# Sequence (P99999 2-105 limits assumed): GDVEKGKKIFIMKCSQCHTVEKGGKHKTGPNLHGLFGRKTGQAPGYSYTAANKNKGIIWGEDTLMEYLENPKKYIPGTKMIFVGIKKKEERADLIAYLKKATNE
# protocol.description: Inhibition of Apaf-1-caspase 9-cytochrome c-caspase 3 complex in human HEK293 cytosolic extract using afc-DEVD as substrate preincubated for 30 mins before substrate addition measured after 30 mins by fluorescence assay
quantity.kind: EC50 (µM)

NC(=O)CN(CCc1ccc(Cl)cc1Cl)C(=O)[C@@H]1CC(=O)N(CCc2ccc(Cl)cc2Cl)CC(=O)N1CCC(c1ccccc1)c1ccccc1 ... 14
NC(=O)CN(CCc1ccc(Cl)cc1Cl)C(=O)C[C@H]1C(=O)N(CCc2ccc(Cl)cc2Cl)CC(=O)N1CCC(c1ccccc1)c1ccccc1 ... 23.9
NC(=O)CN(CCc1ccc(Cl)cc1Cl)C(=O)C1CC(=O)N(CCc2ccc(Cl)cc2Cl)CC(=O)N1CCC(c1ccccc1)c1ccccc1 (racemic) ... 16.8
